# Tested System: HsCDK1 (Homo sapiens, UniProt P06493)
# Construct: purchased ProQinase
# Sequence (P06493 whole entry): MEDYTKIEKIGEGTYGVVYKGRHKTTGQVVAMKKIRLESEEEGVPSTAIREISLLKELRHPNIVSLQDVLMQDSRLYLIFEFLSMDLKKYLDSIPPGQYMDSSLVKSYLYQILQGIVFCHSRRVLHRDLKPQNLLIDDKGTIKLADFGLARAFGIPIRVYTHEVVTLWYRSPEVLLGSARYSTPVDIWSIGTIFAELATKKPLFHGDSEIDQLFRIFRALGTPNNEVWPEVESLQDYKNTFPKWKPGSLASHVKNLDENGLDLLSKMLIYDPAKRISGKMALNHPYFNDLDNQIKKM
# Sequence (P14635 whole entry partner): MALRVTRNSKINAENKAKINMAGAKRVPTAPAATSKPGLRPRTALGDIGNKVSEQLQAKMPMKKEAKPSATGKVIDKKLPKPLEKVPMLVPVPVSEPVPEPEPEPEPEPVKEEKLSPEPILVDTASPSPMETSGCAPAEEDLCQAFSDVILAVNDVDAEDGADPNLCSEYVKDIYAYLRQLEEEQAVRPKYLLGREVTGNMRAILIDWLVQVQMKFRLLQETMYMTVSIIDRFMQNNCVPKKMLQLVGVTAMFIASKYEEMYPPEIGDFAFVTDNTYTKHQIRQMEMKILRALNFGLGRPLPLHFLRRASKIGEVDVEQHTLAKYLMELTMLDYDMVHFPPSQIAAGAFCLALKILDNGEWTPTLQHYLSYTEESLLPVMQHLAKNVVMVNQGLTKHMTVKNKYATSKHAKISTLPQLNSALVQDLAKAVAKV
# Assay Info: CDK1 kinase assay
# Assay type: biochemical
Result Type: pIC50
Reminder that pIC50 means the negative base-10 logarithm of the concentration expressed in mol/L.

The compound listed as CCCNc1ccc2ncc(-c3ccc4[nH]ncc4c3)n2n1 [Compound 5, reference compound] has a reported pIC50 of 7.54

* * *

# Tested System: HsPLK1 (Homo sapiens, UniProt P53350)
# Sequence (P53350 whole entry): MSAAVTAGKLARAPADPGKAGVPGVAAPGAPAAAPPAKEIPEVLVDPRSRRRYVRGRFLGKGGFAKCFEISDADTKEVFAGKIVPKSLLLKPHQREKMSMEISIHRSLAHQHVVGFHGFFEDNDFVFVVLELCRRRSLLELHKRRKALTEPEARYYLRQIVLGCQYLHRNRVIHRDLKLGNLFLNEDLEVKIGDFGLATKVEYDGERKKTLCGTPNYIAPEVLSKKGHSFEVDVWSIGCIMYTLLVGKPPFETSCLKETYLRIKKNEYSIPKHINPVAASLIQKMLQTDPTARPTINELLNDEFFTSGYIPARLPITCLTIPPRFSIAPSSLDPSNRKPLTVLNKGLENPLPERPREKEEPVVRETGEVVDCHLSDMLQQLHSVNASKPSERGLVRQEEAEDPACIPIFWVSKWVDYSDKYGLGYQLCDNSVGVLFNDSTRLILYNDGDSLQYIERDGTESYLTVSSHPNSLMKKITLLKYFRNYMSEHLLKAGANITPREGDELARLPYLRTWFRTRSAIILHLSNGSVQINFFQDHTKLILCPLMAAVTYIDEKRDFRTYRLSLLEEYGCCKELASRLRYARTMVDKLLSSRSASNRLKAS
pIC50: −log10 of the molar value.
Result Type: pIC50

# Compound, pIC50
rows = [
    ("c1cc2[nH]ncc2cc1-c1cnc2ccc(OC[C@H]3CNCCO3)nn12 [Compound 22]", "< 5.00"),
]

The compound listed as CCCNc1ccc2ncc(-c3ccc4[nH]ncc4c3)n2n1 [Compound 5, reference compound] has a reported pIC50 of < 5.00

* * *

# System: RPE-1
# Assay Info: Cell viability, monolayer (2D), MTS assay
# Type: cell-based
# Stated Conditions: Homo sapiens, 48 h
Result Type: pEC50
Reminder that pEC50 means the negative base-10 logarithm of the concentration expressed in mol/L.

For orientation, consider the following solved cases.
# Compound, pEC50
records = [
    ("c1cc2[nH]ncc2cc1-c1cnc2ccc(OC[C@@H]3CNCCO3)nn12", 5.34),
    ("CCOc1ccc2ncc(-c3ccc4[nH]ncc4c3)n2n1", 5.43),
    ("CC[C@H](CO)Nc1ccc2ncc(-c3ccc4[nH]ncc4c3)n2n1", 5.17),
    ("c1cc2[nH]ncc2cc1-c1cnc2ccc(OC[C@H]3CNCCO3)nn12", 5.22),
]

In the following, a different compound is considered.
Case CCCNc1ccc2ncc(-c3ccc4[nH]ncc4c3)n2n1 [Compound 5, reference compound] , RPE-1, pEC50 recorded as 5.42

* * *

# Tested System: HsCDK1 (Homo sapiens, UniProt P06493)
# Construct: purchased ProQinase
# Assay Info: CDK1 kinase assay
# Assay type: biochemical
# Stated Conditions: Table 4; read-out: IC50 HsCDK1
Result Type: IC50 (µM)
Kindly provide the numeric value in µM only, without the unit symbol.

For orientation, consider the following solved cases.
# Structure As Smiles, Unit Of Measurement, IC50
data = [
    ("c1cc2[nH]ncc2cc1-c1cnc2ccc(OC[C@@H]3CNCCO3)nn12", "µM", 2.35),
    ("c1cc2[nH]ncc2cc1-c1cnc2ccc(OC[C@H]3CNCCO3)nn12", "µM", 2.87),
    ("CC[C@H](CO)Nc1ccc2ncc(-c3ccc4[nH]ncc4c3)n2n1", "µM", 0.052),
]

In the following, a different compound is considered.
The compound listed as CCOc1ccc2ncc(-c3ccc4[nH]ncc4c3)n2n1 has a reported IC50 of 0.795
